The measurements presented in this section are drawn from ChEMBL document CHEMBL1201861.

# System: DBTRG-05MG;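 also: cell viability assay measuring growth inhibition of human DBTRG-05MG cells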
# METHOD: cells
# Assay type: functional, cell-based, Homo sapiens
# RECORDED_CONDITIONS: Homo sapiens, DBTRG-05MG
# Description: SANGER: Inhibition of human DBTRG-05MG cell growth in a cell viability assay.
pIC50: −log10 of the molar value.
Would you mind telling me the reported pIC50 of each entry?

>  <MOLECULE>
COc1cccc2c1C(=O)c1c(O)c3c(c(O)c1C2=O)C[C@@](O)(C(=O)CO)C[C@@H]3O[C@H]1C[C@H](N)[C@H](O)[C@H](C)O1

>  <READOUT_VALUE>
7.17

$$$$
>  <MOLECULE>
CC1(C)CNc2cc(NC(=O)c3cccnc3NCc3ccncc3)ccc21

>  <READOUT_VALUE>
< 5.70

$$$$
>  <MOLECULE>
Cc1cc([N+](=O)[O-])ccc1NS(=O)(=O)c1cc(Cl)ccc1Cl

>  <READOUT_VALUE>
5.04

$$$$

Look up pIC50 for the entries below, preserving their order.
1. Nc1cccc2c1CN(C1CCC(=O)NC1=O)C2=O (stereo unspecified) [LENALIDOMIDE]
2. CS(=O)(=O)c1ccc(C(=O)Nc2ccc(Cl)c(-c3ccccn3)c2)c(Cl)c1
3. Nc1ccn([C@@H]2O[C@H](CO)[C@@H](O)C2(F)F)c(=O)n1

Result:
1. < 5.30
2. < 5.00
3. 6.91
